biological target: T1, biotin-labeled human PD-1 Fc protein (human, biotin-labeled (sites not given)); assay: competition ELISA: blocks biotin PD-1-Fc binding to coated PD-L1-Fc
T1 construct: also called PD-1-Fc-biotin
property.measured: IC50 (nM)

>>> quantitative_result("mouse anti-PD-1 monoclonal antibody D1A1 (antibody, mouse IgG1, kappa, V domains shown, Purified from hybridoma; Constant regions tied only generically to 'mouse antibodies') VH: EVMLVESGGGLVKPGGSLKLSCAASGFTFSNYAMSWVRQTPEKRLEWVATISGGGGNIYYPDSVKGRFTISRDNARNTLYLQMSSLRSEDTALYYCASPYANYVWYLDVWGAGTTVTVSS VL: DIQMTQTTSSLSASLGDRVTISCRASQDISNYLNWYQQKPDGTVKLLIYYTSRLHSGVPSRFSGSGSGTDFSLTISNLEEEDIATYFCQQSNALPWTFGGGTKLEIKR")
0.22
>>> quantitative_result("mouse anti-PD-1 monoclonal antibody C1E2 (antibody, mouse IgG1, kappa, V domains shown, Purified from hybridoma; Constant regions tied only generically to 'mouse antibodies') VH: QVQLQQSGAELVRPGTSVKISCKASGYTFTNYWLGWVKQRPGHGLEWIGDIYPGGGYTNYNENFKGKATLTADTSSSTAYMQLSSLTSEDSAVFFCARGYGTNYWYFDVWGAGTTVTVSS VL: SIVMTQTPKFLLVSAGDRVTITCKASQSVSNDVAWYQQKPGQSPKLLIYYAFHRYTGVPDRFTGSGYGTDFTFTISTVQAEDLAVYFCQQDYSSPYTFGGGTKLEIKR")
0.25
>>> quantitative_result("mouse anti-PD-1 monoclonal antibody D1F2 (antibody, mouse IgG1, kappa, V domains shown, Purified from hybridoma; Constant regions tied only generically to 'mouse antibodies') VH: EVMLVESGGGLVKPGGSLKLSCAASGFTFSSYTMSWVRQTPEKRLEWVATISGGGSNIYYPDSVEGRFTVSRDNARNTLYLHMSSLRSEDTALYYCVLNYAYAMDYWGQGTSVTVSS VL: DIQMTQTTSSLSASLGDRVTISCRASQDISNFLNWYQQKPDGTVKLLIYYTSRLQSGVPSRFSGTGSGTDYSLTISNLEQEDLATYFCQQGSSLPWTFGGGTKLEIKR")
0.21
